Listing of recorded Bmax (MFI) by entry.
Biological target: T1, human sodium-dependent phosphate transporter 2B (NaPi2b) (human, UniProt O95436 1-690)
T1 construct: UniProt ID is given as 095436 [sic]; also called hNaPi2b; Hu NaPi2b
T1 sequence: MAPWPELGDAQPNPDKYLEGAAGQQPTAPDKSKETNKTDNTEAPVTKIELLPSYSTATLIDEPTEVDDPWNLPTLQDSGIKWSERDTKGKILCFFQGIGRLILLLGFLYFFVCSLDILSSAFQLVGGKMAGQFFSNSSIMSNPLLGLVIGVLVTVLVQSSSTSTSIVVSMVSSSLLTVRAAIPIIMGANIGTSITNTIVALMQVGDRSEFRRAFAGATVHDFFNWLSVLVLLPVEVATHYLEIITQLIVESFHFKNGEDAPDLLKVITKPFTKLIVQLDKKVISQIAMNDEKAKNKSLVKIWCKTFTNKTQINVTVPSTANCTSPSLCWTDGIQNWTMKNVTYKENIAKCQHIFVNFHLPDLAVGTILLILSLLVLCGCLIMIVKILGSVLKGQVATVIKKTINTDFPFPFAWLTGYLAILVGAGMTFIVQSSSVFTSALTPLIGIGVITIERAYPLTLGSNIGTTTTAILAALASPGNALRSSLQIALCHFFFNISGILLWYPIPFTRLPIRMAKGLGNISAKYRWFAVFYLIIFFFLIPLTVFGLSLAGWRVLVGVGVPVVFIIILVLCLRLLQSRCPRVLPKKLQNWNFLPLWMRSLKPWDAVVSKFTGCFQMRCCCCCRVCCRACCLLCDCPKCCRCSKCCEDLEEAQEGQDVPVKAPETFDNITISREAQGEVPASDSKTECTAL
Assay: flow cytometry, IGROV-1 cells (endogenous NaPi2b), 24 h at 4 °C
Form entry: value (MFI) — number only.

binder	observable	observed-measurement
v29459 humanized anti-NaPi2b antibody (H2L1) (antibody, human IgG1, kappa, V domains shown) VH: QVQLVQSGAEVKKPGASVKVSCKASGFTFTSYNVHWVRQAPGQGLEWIAAISPGNGDLSYAQKFQGRVTMTVDTSTSTVYMELSSLRSEDTAVYYCARGRTGMGAVDYWGQGTLVTVSS VL: DIQMTQSPSSLSASVGDRVTITCRASQDVYSYLNWYQQKPGKAPKLLIYYTSRLQSGVPSRFSGSGSGTDFTLTISSLQPEDFATYYCQQYNIFPWTFGQGTKLEIKR	Bmax (MFI)	40900
v29451 humanized anti-NaPi2b antibody (H2L3) (antibody, human IgG1, kappa, V domains shown) VH: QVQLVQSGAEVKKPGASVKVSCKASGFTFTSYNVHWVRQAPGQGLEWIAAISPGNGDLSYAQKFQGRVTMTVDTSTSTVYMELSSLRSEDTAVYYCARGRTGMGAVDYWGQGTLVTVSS VL: DVQMTQSPSSLSASVGDRVTITCRASQDVYSYLNWYQQKPGKAVKLLIYYTSRLQSGVPSRFSGSGSGTDYTLTISSLQPEDIATYYCQQYNIFPWTFGQGTKLEIKR	Bmax (MFI)	46200
v29453 humanized anti-NaPi2b antibody (H4L2) (antibody, human IgG1, kappa, V domains shown) VH: QVQLVQSGAEVKKPGASVKMSCKASGFTFTSYNVHWVRQAPGQGLEWIAAISPGNGDLSYAQKFQGRATLTVDRSTSTAYMELSSLRSEDTAVYYCARGRTGMGAVDYWGQGTLVTVSS VL: DVQMTQSPSSLSASVGDRVTITCRASQDVYSYLNWYQQKPGKAVKLLIYYTSRLQSGVPSRFSGSGSGTDYTLTISSLQPEDFATYYCQQYNIFPWTFGQGTKLEIKR	Bmax (MFI)	44500

Please look at the following binder next.
Return reported Bmax (MFI); argument: v29450 humanized anti-NaPi2b antibody (H3L3) (antibody, human IgG1, kappa, V domains shown) VH: QVQLVQSGAEVKKPGASVKMSCKASGFTFTSYNVHWVRQAPGQGLEWIAAISPGNGDLSYAQKFQGRATLTVDTSTSTAYMELSSLRSEDTAVYYCARGRTGMGAVDYWGQGTLVTVSS VL: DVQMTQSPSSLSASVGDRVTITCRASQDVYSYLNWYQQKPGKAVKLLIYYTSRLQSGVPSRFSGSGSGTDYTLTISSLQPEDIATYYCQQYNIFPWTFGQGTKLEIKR
43800

Data provenance is patent US20250277030A1.
